Entries and their activation at 10 µM values follow.
measuredTarget: VR1 (human) (Homo sapiens, UniProt Q8NER1)
Construct: expressed in transfected cells; host or cells: CHO K1 cells (ECACC)
Sequence (Q8NER1 whole entry): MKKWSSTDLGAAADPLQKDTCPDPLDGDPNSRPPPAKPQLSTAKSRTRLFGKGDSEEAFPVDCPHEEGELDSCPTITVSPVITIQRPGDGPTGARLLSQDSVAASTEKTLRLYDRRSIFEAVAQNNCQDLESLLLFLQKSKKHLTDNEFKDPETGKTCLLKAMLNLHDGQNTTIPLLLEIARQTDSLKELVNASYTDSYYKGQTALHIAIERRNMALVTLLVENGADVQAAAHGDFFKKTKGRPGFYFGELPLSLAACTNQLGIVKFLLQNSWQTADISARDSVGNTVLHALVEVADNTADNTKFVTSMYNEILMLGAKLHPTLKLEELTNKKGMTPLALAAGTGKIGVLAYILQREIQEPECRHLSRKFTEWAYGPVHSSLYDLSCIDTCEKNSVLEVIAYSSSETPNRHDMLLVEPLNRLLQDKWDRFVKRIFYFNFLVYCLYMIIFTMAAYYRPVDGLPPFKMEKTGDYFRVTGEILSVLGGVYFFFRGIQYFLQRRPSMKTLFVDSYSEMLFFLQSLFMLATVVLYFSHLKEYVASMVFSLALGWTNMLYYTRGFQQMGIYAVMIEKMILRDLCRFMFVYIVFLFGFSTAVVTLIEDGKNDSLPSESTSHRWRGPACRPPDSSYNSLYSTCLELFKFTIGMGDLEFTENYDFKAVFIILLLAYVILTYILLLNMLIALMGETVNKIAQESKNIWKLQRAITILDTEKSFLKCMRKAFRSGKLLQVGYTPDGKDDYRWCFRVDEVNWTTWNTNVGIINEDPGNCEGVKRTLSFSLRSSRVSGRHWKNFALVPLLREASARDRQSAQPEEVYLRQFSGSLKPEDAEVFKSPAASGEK
assayDetails: Functional testing on vanilloid receptor VR1, FLIPR Ca2+ inflow assay (CHO K1 cells stably transfected with the VR1 gene)
Assay type: cell-based
measurementConditions: CHO-K1; test compound 10 μM; Ca2+ inflow relative to signal of 10 μM capsaicin (CP); read-out: VR1 (human) (% stimulation compared to 10 μM CP)
Hi! Could you send only the number? It should be in %, unit omitted.

Take a look at these entries with their results.
O=C(Nc1cccc(C(F)(F)F)c1)N1CCC2(CC1)CC(C(=O)N1CCN(c3ncccc3Cl)CC1)=NO2 [Example 68] = 16.4
CC(C)c1ccccc1NC(=O)N1CCC2(CC1)CC(C(=O)N1CCN(c3ncccc3Cl)CC1)=NO2 [Example 61] = 0.08
CC(C)(C)c1ccc(NC(=O)N2CCC3(CC2)CC(C(=O)N2CCN(c4ncccc4Cl)CC2)=NO3)cc1 [Example 116] = 42
O=C(Nc1ccc(Cl)cc1)N1CCC2(CC1)CC(C(=O)N1CCN(c3ncccc3Cl)CC1)=NO2 [Example 51] = 13.2
O=C(Nc1cccc(Br)c1)N1CCC2(CC1)CC(C(=O)N1CCN(c3ncccc3Cl)CC1)=NO2 [Example 11] = -0.15

Q) Item COc1ccc(NC(=O)N2CCC3(CC2)CC(C(=O)N2CCN(c4ncccc4Cl)CC2)=NO3)cc1 [Example 52] with VR1 (human) (Homo sapiens, UniProt Q8NER1) - activation at 10 µM?
A) 47.5

Q) Item COc1cccc(NC(=O)N2CCC3(CC2)CC(C(=O)N2CCN(c4ncccc4Cl)CC2)=NO3)c1 [Example 17] with VR1 (human) (Homo sapiens, UniProt Q8NER1) - activation at 10 µM?
A) 19.5

Q) Item CC(C)(C)c1ccc(NC(=O)N2CCC3(CC2)CC(C(=O)N2CCN(c4ncccc4C(F)(F)F)CC2)=NO3)cc1 [Example 228] with VR1 (human) (Homo sapiens, UniProt Q8NER1) - activation at 10 µM?
A) 7.07

Q) Item O=C(Nc1ccccc1F)N1CCC2(CC1)CC(C(=O)N1CCN(c3ncccc3Cl)CC1)=NO2 [Example 1] with VR1 (human) (Homo sapiens, UniProt Q8NER1) - activation at 10 µM?
A) 4.85

These measurements were taken from patent US20080214807A1.
